Cited source: patent US5552520A

Target: somatostatin receptor (Rattus norvegicus)
Construct: SRIF-14 to rat AR42J pancreas membranes; endogenous in cells
Sequence (P30680 whole entry): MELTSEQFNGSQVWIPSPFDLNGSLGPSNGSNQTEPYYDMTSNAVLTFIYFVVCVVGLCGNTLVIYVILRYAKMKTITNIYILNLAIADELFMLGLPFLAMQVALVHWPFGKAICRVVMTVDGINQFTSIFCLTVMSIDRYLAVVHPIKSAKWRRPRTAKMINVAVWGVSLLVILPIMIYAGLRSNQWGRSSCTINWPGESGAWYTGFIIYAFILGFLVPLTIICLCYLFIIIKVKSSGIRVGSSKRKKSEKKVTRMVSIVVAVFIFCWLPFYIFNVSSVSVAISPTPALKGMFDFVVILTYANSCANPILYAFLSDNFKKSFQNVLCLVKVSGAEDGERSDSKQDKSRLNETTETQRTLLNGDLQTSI
Test: Somatostatin binding assay: in vitro inhibition of binding of [125I-Tyr11]SRIF-14 to rat AR42J pancreas membranes
Conditions: inhibition of [125I-Tyr11]SRIF-14 binding, read-out: IC50, in vitro binding affinity
We begin with a simple list: items and their reported IC50.
Parameter measured: IC50

Molecular string: CC[C@@H]1NC(=O)[C@H](CCCCN)NC(=O)[C@@H](Cc2c[nH]c3ccccc23)NC(=O)[C@H](Cc2ccc(O)cc2)NC(=O)[C@@H](NC(=O)[C@@H](Cc2ccccc2)NS(=O)(=O)CCNC(CO)(CO)CO)CSSC[C@@H](C(=O)N[C@H](C(N)=O)[C@@H](C)O)NC1=O
Parameter measured: IC50
Assay value: 0.09 nM

Molecular string: CC[C@@H]1NC(=O)[C@H](CCCCN)NC(=O)[C@@H](Cc2c[nH]c3ccccc23)NC(=O)[C@H](Cc2ccc(O)cc2)NC(=O)[C@@H](NC(=O)[C@@H](Cc2ccccc2)NC(=O)CN2CCN(CCOCCO)CC2)CSSC[C@@H](C(=O)N[C@H](C(N)=O)[C@@H](C)O)NC1=O
Parameter measured: IC50
Assay value: 0.18 nM

Molecular string: CC[C@@H]1NC(=O)[C@H](CCCCN)NC(=O)[C@@H](Cc2c[nH]c3ccccc23)NC(=O)[C@H](Cc2ccc(O)cc2)NC(=O)[C@@H](NC(=O)[C@@H](Cc2ccccc2)NC(=O)CN2CCN(CCO)CC2)CSSC[C@@H](C(=O)N[C@H](C(N)=O)[C@@H](C)O)NC1=O
Parameter measured: IC50
Assay value: 0.2 nM

###

Target: somatostatin receptor (Rattus norvegicus)
Construct: SRIF-14 to rat AR42J pancreas membranes; endogenous in cells
Experiment: Somatostatin binding assay: in vitro inhibition of binding of [125I-Tyr11]SRIF-14 to rat AR42J pancreas membranes
Conditions: inhibition of [125I-Tyr11]SRIF-14 binding, read-out: IC50, in vitro binding affinity
Bridge positions count the residues as written; N and C are the ends. Square brackets hold non-standard residues; d marks the D form. Peptide text beside a SMILES is read from it. * marks the point of attachment. 2Nal = N[C@@H](Cc1ccc2ccccc2c1)C(=O)O; X4 = O=C(CN1CCN(CCO)CC1)*
IC50 values, listed per item

Compound: CC[C@@H]1NC(=O)[C@H](CCCCN)NC(=O)[C@@H](Cc2c[nH]c3ccccc23)NC(=O)[C@H](Cc2ccc(O)cc2)NC(=O)[C@@H](NC(=O)[C@@H](Cc2ccccc2)NS(=O)(=O)CCN2CCN(CCO)CC2)CSSC[C@@H](C(=O)N[C@H](C(N)=O)[C@@H](C)O)NC1=O
Test target: somatostatin receptor (Rattus norvegicus)
IC50 / nM: 0.29
--
Compound: CC[C@@H]1NC(=O)[C@H](CCCCN)NC(=O)[C@@H](Cc2c[nH]c3ccccc23)NC(=O)[C@H](Cc2ccc(O)cc2)NC(=O)[C@@H](NC(=O)[C@@H](Cc2ccccc2)NC(=O)CCC(=O)NC(CO)(CO)CO)CSSC[C@@H](C(=O)N[C@H](C(N)=O)[C@@H](C)O)NC1=O
Test target: somatostatin receptor (Rattus norvegicus)
IC50 / nM: 0.11
--
Compound: C[C@@H](O)[C@@H]1NC(=O)[C@H](CCCCN)NC(=O)[C@@H](Cc2c[nH]c3ccccc23)NC(=O)[C@H](Cc2ccc(O)cc2)NC(=O)[C@@H](NC(=O)[C@@H](Cc2ccccc2)NC(=O)CN2CCN(CCO)CC2)CSSC[C@@H](C(=O)N[C@@H](Cc2ccc3ccccc3c2)C(N)=O)NC1=O [BIM-23191] (X4-[dF]CY[dW]KTC[2Nal]-NH2; disulfide 2-7)
Test target: somatostatin receptor (Rattus norvegicus)
IC50 / nM: 0.08
